System: Cryptococcus neoformans
Assay: CLSI broth microdilution MIC (Example 6)
Assay type: cell-based
Details: human clinical isolate C. neoformans serotype A/D hybrid
Measured MIC by item

compound | assay_target | censoring_operator | MIC, µg/mL
Cc1ccc(/C=N/Nc2cc(N/N=C/c3ccc(C)cc3)nc(N)n2)cc1 [NCL195] | Cryptococcus neoformans | = | 2
[H]/N=C(\N)NN=C(CCCCCC)c1ccc(Cl)cc1 [NCL265] | Cryptococcus neoformans | = | 8
COc1ccc(C=NNC(=N)NN=Cc2ccc(OC)c(OC)c2)cc1OC.Cl [NCL115] | Cryptococcus neoformans | > | 32
C/C(=N\NC(=N)N/N=C(\C)c1ccc(C(C)(C)C)cc1)c1ccc(C(C)(C)C)cc1.Cl [NCL219] | Cryptococcus neoformans | > | 32
[H]/N=C(\N)NN=C(CC1CCCCC1)c1ccc(Cl)cc1 [NCL259] | Cryptococcus neoformans | = | 8

====

System: Cryptococcus neoformans
Assay: CLSI broth microdilution MIC (Example 6)
Type: cell-based
Details: human clinical isolate C. neoformans serotype A/D hybrid
Measured MIC by item
assay_readout: MIC (µg/mL)

compound | units | reported
CN(C)c1ccc(/C=N/NC(=N)N/N=C/c2ccc(N(C)C)cc2)cc1.Cl | µg/mL | 4
Cl.N#Cc1ccc(C=NNC(=N)NN=Cc2ccc(C#N)cc2)cc1 | µg/mL | 32
Cl.N=C(NN=Cc1cccc(F)c1)NN=Cc1cccc(F)c1 | µg/mL | 8
C[C@@H]1[C@H](O)[C@@H](C)/C=C/C=C/C=C/C=C/C=C/C=C/C=C/[C@H](O[C@@H]2O[C@H](C)[C@@H](O)[C@H](N)[C@@H]2O)C[C@@H]2O[C@](O)(C[C@@H](O)C[C@@H](O)[C@H](O)CC[C@@H](O)C[C@@H](O)CC(=O)O[C@H]1C)C[C@H](O)[C@H]2C(=O)O [Amphotericin B, reference compound] | µg/mL | 0.5
Nc1nc(NN=Cc2ccc(F)cc2)cc(NN=Cc2ccc(F)cc2)n1 | µg/mL | 32

====

Measured MIC at 24-48 hours by item
Tested on: Candida albicans
Assay: CLSI broth microdilution MIC (Example 4)
Type: cell-based
Settings: Candida albicans SA3
assay_readout: MIC at 24-48 hours (µg/mL)

structure_smiles_string | assay_readout | censoring_operator | reported
Cc1ccc(/C=N/Nc2cc(N/N=C/c3ccc(C)cc3)nc(N)n2)cc1 | MIC at 24-48 hours | = | 2
CCCCCCNC(=O)N(N=Cc1ccc(Cl)cc1)C(N)=NN=Cc1ccc(Cl)cc1 | MIC at 24-48 hours | > | 32
Clc1ccc(CNCCNCc2ccc(Cl)cc2)cc1 | MIC at 24-48 hours | > | 32
Clc1ccc(/C=N/CC/N=C/c2ccc(Cl)cc2)cc1 | MIC at 24-48 hours | > | 32
[H]/N=C(\N)NN=C(CC1CCCCC1)c1ccc(Cl)cc1 | MIC at 24-48 hours | = | 16

====

Tested on: C. gattii
Experiment: CLSI broth microdilution MIC (Example 6)
Format: cell-based, Cryptococcus gattii
Conditions: human clinical isolate C. gattii 17-90028242
assay_readout: MIC (µg/mL)

molecule | assay_readout | censoring_operator | reported
Cl.N=C(NN=Cc1cccc(F)c1)NN=Cc1cccc(F)c1 | MIC | = | 8
Cc1ccc(/C=N/Nc2cc(N/N=C/c3ccc(C)cc3)nc(N)n2)cc1 | MIC | = | 2
C/C(=N\NC(=N)N/N=C(\C)c1ccc(C(C)(C)C)cc1)c1ccc(C(C)(C)C)cc1.Cl | MIC | > | 32
COc1ccc(C=NNC(=N)NN=Cc2ccc(OC)c(OC)c2)cc1OC.Cl | MIC | > | 32
Cl.N=C(NN=Cc1cc(O)c(O)c(O)c1)NN=Cc1cc(O)c(O)c(O)c1 | MIC | = | 32
Nc1nc(NN=Cc2ccc(F)cc2)cc(NN=Cc2ccc(F)cc2)n1 | MIC | = | 32
[H]/N=C(\N)NN=C(CC1CCCCC1)c1ccc(Cl)cc1 | MIC | = | 8
Cl.N#Cc1ccc(C=NNC(=N)NN=Cc2ccc(C#N)cc2)cc1 | MIC | = | 32
C[C@@H]1[C@H](O)[C@@H](C)/C=C/C=C/C=C/C=C/C=C/C=C/C=C/[C@H](O[C@@H]2O[C@H](C)[C@@H](O)[C@H](N)[C@@H]2O)C[C@@H]2O[C@](O)(C[C@@H](O)C[C@@H](O)[C@H](O)CC[C@@H](O)C[C@@H](O)CC(=O)O[C@H]1C)C[C@H](O)[C@H]2C(=O)O [Amphotericin B, reference compound] | MIC | = | 1
[H]/N=C(\N)NN=C(CCCCCC)c1ccc(Cl)cc1 | MIC | = | 8

====

Tested on: Candida parapsilosis
Test: CLSI broth microdilution MIC (Example 3)
Assay type: cell-based
Settings: Candida parapsilosis ATCC 22019; 2nd
assay_readout: MIC (mg/L)

molecule | censoring_operator | reported
N=C(N/N=C/c1ccc(Cl)cc1)N/N=C/c1ccc(Cl)cc1 [NCL812, robenidine, reference compound] | = | 0.5
[H]/N=C(\N)NN=C(CCCCCC)c1ccc(Cl)cc1 [NCL265] | = | 2
C[C@@H]1[C@H](O)[C@@H](C)/C=C/C=C/C=C/C=C/C=C/C=C/C=C/[C@H](O[C@@H]2O[C@H](C)[C@@H](O)[C@H](N)[C@@H]2O)C[C@@H]2O[C@](O)(C[C@@H](O)C[C@@H](O)[C@H](O)CC[C@@H](O)C[C@@H](O)CC(=O)O[C@H]1C)C[C@H](O)[C@H]2C(=O)O [Amphotericin B, reference compound] | = | 0.5
C/C(=N\NC(=N)N/N=C(\C)c1ccc(Cl)cc1)c1ccc(Cl)cc1.Cl [NCL062] | = | 1
[H]/N=C(\N)NN=C(CC1CCCCC1)c1ccc(Cl)cc1 [NCL259] | = | 4
Cc1ccc(/C=N/Nc2cc(N/N=C/c3ccc(C)cc3)nc(N)n2)cc1 [NCL195] | = | 2
C/C(=N\NC(=N)N/N=C(\C)c1ccc(C(C)(C)C)cc1)c1ccc(C(C)(C)C)cc1.Cl [NCL219] | > | 32

====

Measured MIC by item
Test system: Candida albicans
Experiment: CLSI broth microdilution MIC (Example 5)
Type: cell-based
Settings: clinical isolate C. albicans 12-93301752 Azole Resistant

compound | censoring_operator | MIC / µg/mL
[H]/N=C(\N)NN=C(CCCCCC)c1ccc(Cl)cc1 [NCL265] | = | 2
Cl.N#Cc1ccc(C=NNC(=N)NN=Cc2ccc(C#N)cc2)cc1 [NCL024] | = | 8
Cl.N=C(NN=Cc1cc(O)c(O)c(O)c1)NN=Cc1cc(O)c(O)c(O)c1 [NCL097] | = | 8
[H]/N=C(\N)NN=C(CC1CCCCC1)c1ccc(Cl)cc1 [NCL259] | = | 16
CN(C)c1ccc(/C=N/NC(=N)N/N=C/c2ccc(N(C)C)cc2)cc1.Cl [NCL113] | = | 8
COc1ccc(C=NNC(=N)NN=Cc2ccc(OC)c(OC)c2)cc1OC.Cl [NCL115] | > | 16
Nc1nc(NN=Cc2ccc(F)cc2)cc(NN=Cc2ccc(F)cc2)n1 [NCL220] | = | 4
C/C(=N\NC(=N)N/N=C(\C)c1ccc(C(C)(C)C)cc1)c1ccc(C(C)(C)C)cc1.Cl [NCL219] | > | 16
Cc1ccc(/C=N/Nc2cc(N/N=C/c3ccc(C)cc3)nc(N)n2)cc1 [NCL195] | = | 4
C[C@@H]1[C@H](O)[C@@H](C)/C=C/C=C/C=C/C=C/C=C/C=C/C=C/[C@H](O[C@@H]2O[C@H](C)[C@@H](O)[C@H](N)[C@@H]2O)C[C@@H]2O[C@](O)(C[C@@H](O)C[C@@H](O)[C@H](O)CC[C@@H](O)C[C@@H](O)CC(=O)O[C@H]1C)C[C@H](O)[C@H]2C(=O)O [Amphotericin B, reference compound] | = | 0.5
Cl.N=C(NN=Cc1cccc(F)c1)NN=Cc1cccc(F)c1 [NCL023] | = | 16

====

Tested on: Cryptococcus neoformans
Assay: CLSI broth microdilution MIC (Example 6)
Type: cell-based
Settings: Cryptococcus neoformans SA1

structure_smiles_string | MIC (µg/mL)
C/C(=N\NC(=N)N/N=C(\C)c1ccc(C(C)(C)C)cc1)c1ccc(C(C)(C)C)cc1.Cl | 2
Cc1ccc(/C=N/Nc2cc(N/N=C/c3ccc(C)cc3)nc(N)n2)cc1 | 2
[H]/N=C(\N)NN=C(CC1CCCCC1)c1ccc(Cl)cc1 | 2
Cl.N=C(NN=Cc1cc(O)c(O)c(O)c1)NN=Cc1cc(O)c(O)c(O)c1 | 16

====

Tested on: Cryptococcus neoformans
Assay: CLSI broth microdilution MIC (Example 6)
Format: cell-based
Conditions: Cryptococcus neoformans SA1

compound | censoring_operator | MIC, µg/mL
Cl.N#Cc1ccc(C=NNC(=N)NN=Cc2ccc(C#N)cc2)cc1 | > | 32
Nc1nc(NN=Cc2ccc(F)cc2)cc(NN=Cc2ccc(F)cc2)n1 | = | 2
[H]/N=C(\N)NN=C(CCCCCC)c1ccc(Cl)cc1 | = | 1
C[C@@H]1[C@H](O)[C@@H](C)/C=C/C=C/C=C/C=C/C=C/C=C/C=C/[C@H](O[C@@H]2O[C@H](C)[C@@H](O)[C@H](N)[C@@H]2O)C[C@@H]2O[C@](O)(C[C@@H](O)C[C@@H](O)[C@H](O)CC[C@@H](O)C[C@@H](O)CC(=O)O[C@H]1C)C[C@H](O)[C@H]2C(=O)O [Amphotericin B, reference compound] | = | 0.3
CN(C)c1ccc(/C=N/NC(=N)N/N=C/c2ccc(N(C)C)cc2)cc1.Cl | = | 4
COc1ccc(C=NNC(=N)NN=Cc2ccc(OC)c(OC)c2)cc1OC.Cl | = | 8
Cl.N=C(NN=Cc1cccc(F)c1)NN=Cc1cccc(F)c1 | = | 16
